FYI, the data here is from patent US9718790B2.

- subject of test: human P2X3 receptor (Homo sapiens (Human))
- protocol: Evaluation of human P2X3 receptor inhibitory activity (Fluo-3 calcium fluorescence, FDSS 3000, ATP stimulation)
- Format: cell-based
- condition set: C6BU-1 cells stably expressing human P2X3 receptor, Fluo-3 fluorescence, FDSS 3000
measured property: pIC50
Formally, pIC50 is defined as -log10 of the concentration c, with c in mol/L.

Some compounds with known pIC50 results, for comparison:
- O=C(O)CCn1c(=O)[nH]/c(=N\c2ccc(Oc3ccc(F)cc3)cc2)n(Cc2ccc(Cl)cc2)c1=O [Compound I-1877]: 7.44
- COC(=O)[C@@H](C)Cn1c(=O)[nH]/c(=N\c2ccc3c(c2)CCCO3)n(Cc2ccc(Cl)cc2)c1=O [Compound I-1102]: 6.83
- CCc1oc2ccc(/N=c3\[nH]c(=O)n(CC4(C(=O)O)CC4)c(=O)n3Cc3ccc(C)cc3)cc2c1C [Compound I-1555]: 7.80
- CCn1c(=O)[nH]/c(=N\c2ccc(Oc3cccc(CC(=O)OC)c3)cc2)n(Cc2ccc(Cl)cc2)c1=O [Compound I-1889]: 7.64
- CCc1oc2ccc(/N=c3\[nH]c(=O)n(CC(=O)NC)c(=O)n3Cc3ccc(Cl)cc3)cc2c1C [Compound I-1657]: 8.05

--- query ---
Task: Recorded pIC50 for Cc1[nH]c2ccc(/N=c3\[nH]c(=O)n([C@@H](C)[C@@H](C)C(=O)O)c(=O)n3Cc3ccc(Cl)cc3)cc2c1C [Compound I-1771] , please?
Result: 7.85

* * *

Measured IC50 by item
- subject of test: human P2X3 receptor (Homo sapiens (Human))
- protocol: Evaluation of human P2X3 receptor inhibitory activity (Fluo-3 calcium fluorescence, FDSS 3000, ATP stimulation)
- Assay type: cell-based
- condition set: human P2X3 receptor, Test Example 1
Kindly provide the numeric value in nM only, without the unit symbol.

• Cn1ccc(Oc2ccc(/N=c3\[nH]c(=O)n(C[C@H](O)CO)c(=O)n3Cc3ccc(Cl)cc3)cc2)n1 = 84
• N#CNC(=O)Cn1c(=O)[nH]/c(=N\c2ccc(Oc3ccon3)cc2)n(Cc2ccc(Cl)cc2)c1=O = 21
• O=C(O)c1cc(Oc2ccc(/N=c3\[nH]c(=O)n(C4CCC4)c(=O)n3Cc3ccc(Cl)cc3)cc2)ccn1 = 8
• CCc1nc2ccc(/N=c3\[nH]c(=O)n(CC4(C(=O)O)CC4)c(=O)n3Cc3ccc(Cl)cc3)cc2s1 = 11
• O=C(O)Cn1c(=O)[nH]/c(=N\c2ccc(Oc3ccon3)c(F)c2)n(Cc2ccc(Cl)cc2)c1=O = 204

Task: Need IC50, item `CCn1c(=S)[nH]/c(=N\c2ccc(Oc3cncc(C(=O)OC)c3)cc2)n(Cc2ccc(Cl)cc2)c1=O`
Result: 17

Task: Now the same for `Cn1c(=O)[nH]/c(=N\c2ccc(Oc3cc(C(=O)O)n[nH]3)cc2)n(Cc2ccc(Cl)cc2)c1=O`
Result: 166

* * *

- subject of test: human P2X3 receptor (Homo sapiens (Human))
- protocol: Evaluation of human P2X3 receptor inhibitory activity (Fluo-3 calcium fluorescence, FDSS 3000, ATP stimulation)
- Assay type: cell-based
- condition set: C6BU-1 cells stably expressing human P2X3 receptor
measured property: pIC50
The scale used: pIC50 is minus the common logarithm of the concentration in molar units.

Answered examples (5):
• Cc1ccc(Cn2c(=O)n([C@H](C)[C@H](C)C(=O)O)c(=O)[nH]/c2=N\c2ccc(OC(C)C)c(C)c2)cc1 [Compound I-1339] = 7.52
• CCn1c(=O)[nH]/c(=N\c2ccc(Oc3ccc(S(N)(=O)=O)cc3)cc2)n(Cc2ccc(C)cc2)c1=O [Compound I-2032] = 8.40
• Cc1nc2ccc(/N=c3\[nH]c(=O)n(C[C@H](C)C(=O)O)c(=O)n3Cc3ccc(Cl)cc3)cc2nc1C [Compound I-1348] = 6.04
• CCOC(=O)CCn1c(=O)[nH]/c(=N\c2ccc(OC(C)C)c(OC)c2)n(Cc2ccc(Cl)cc2)c1=O [Compound I-1248] = 8.22
• CCn1c(=O)[nH]/c(=N\c2ccc(Oc3ccnc(C(N)=O)c3)cc2)n(CC2CCC3(CC2)CC3)c1=O [Compound I-2176] = 8.40

Task: Any idea what its pIC50 is? The compound is O=C(O)c1cncc(Oc2ccc(/N=c3\[nH]c(=O)n(CC(F)F)c(=O)n3Cc3ccc(Cl)cc3)cc2)c1 [Compound I-2215]
Result: 8.22

Task: Item: COC(=O)[C@@H](C)Cn1c(=O)[nH]/c(=N\c2ccc(N3CCCCCC3)cc2)n(Cc2ccc(Cl)cc2)c1=O [Compound I-1233]
Result: 6.49

* * *

Recorded pIC50, one value per entry.
- subject of test: human P2X3 receptor (Homo sapiens (Human))
- protocol: Evaluation of human P2X3 receptor inhibitory activity (Fluo-3 calcium fluorescence, FDSS 3000, ATP stimulation)
- Type: cell-based
- condition set: C6BU-1 cells stably expressing human P2X3 receptor, Fluo-3 fluorescence, FDSS 3000
Convention used: pIC50 is expressed as -log10 of the molar concentration.

Examples from the recorded data:
* CCCc1ccc(Cn2c(=O)n(C[C@H](C)C(=O)OC)c(=O)[nH]/c2=N\c2ccc(OC(C)C)cc2)cc1 | 6.12
* Cc1ccc(Cn2c(=O)n(C[C@H](C)C(=O)O)c(=O)[nH]/c2=N\c2ccc(OC(F)F)cc2)cc1 | 6.83
* Cc1cc(/N=c2\[nH]c(=O)n(CC3CNC3)c(=O)n2Cc2ccc(Cl)cc2)ccc1OC(C)C | 7.18
* CC(C)n1c2c(c3cc(/N=c4\[nH]c(=O)n([C@@H](C)[C@@H](C)C(=O)O)c(=O)n4Cc4ccc(Cl)cc4)ccc31)CCCC2 | 6.10
* Cc1nc2ccc(/N=c3\[nH]c(=O)n(CC(=O)O)c(=O)n3Cc3ccc(Cl)cc3)cc2s1 | 6.60
* CC(C)Oc1ccc(/N=c2\[nH]c(=O)n(CCC(=O)O)c(=O)n2CC2(C)CCCCC2)cc1F | 6.47
* CC(C)=Cc1ccc(/N=c2\[nH]c(=O)n(C[C@H](C)C(=O)O)c(=O)n2Cc2ccc(Cl)cc2)cc1Cl | 8.15
* Cc1ccc(Cn2c(=O)n(C[C@H](C)C(=O)O)c(=O)[nH]/c2=N\c2cccc(CC(C)C)c2)cc1 | 6.17
* CCc1cc(/N=c2\[nH]c(=O)n(C[C@H](C)C(=O)O)c(=O)n2Cc2ccc(C)cc2)ccc1OC(C)C | 7.82
* CC(=O)NCCCn1c(=O)[nH]/c(=N\c2ccc(O[C@H](C)C(F)(F)F)cc2)n(Cc2ccc(Cl)cc2)c1=O | 7.92

Task: State the recorded pIC50 for this entry: `CCc1nc2ccc(/N=c3\[nH]c(=O)n(C[C@H](C)NC(C)=O)c(=O)n3Cc3ccc(Cl)cc3)cc2s1`
Result: 8.15

Task: Ok, now `CCc1nc2ccc(/N=c3\[nH]c(=O)n(CCC#N)c(=O)n3Cc3ccc(Cl)cc3)cc2s1`
Result: 8.52

Task: And `CCOc1ccc(/N=c2\[nH]c(=O)n(CC3COC(C)(C)OC3)c(=O)n2Cc2ccc(Cl)cc2)cc1Cl` ?
Result: 8.52

Task: Then this molecule: `CCOC(=O)CCn1c(=O)[nH]/c(=N\c2ccc(OCC3CC3)cc2)n(Cc2ccc(C)cc2)c1=O`
Result: 8.05

* * *

- subject of test: human P2X3 receptor (Homo sapiens (Human), UniProt P56373)
- Sequence (P56373 whole entry): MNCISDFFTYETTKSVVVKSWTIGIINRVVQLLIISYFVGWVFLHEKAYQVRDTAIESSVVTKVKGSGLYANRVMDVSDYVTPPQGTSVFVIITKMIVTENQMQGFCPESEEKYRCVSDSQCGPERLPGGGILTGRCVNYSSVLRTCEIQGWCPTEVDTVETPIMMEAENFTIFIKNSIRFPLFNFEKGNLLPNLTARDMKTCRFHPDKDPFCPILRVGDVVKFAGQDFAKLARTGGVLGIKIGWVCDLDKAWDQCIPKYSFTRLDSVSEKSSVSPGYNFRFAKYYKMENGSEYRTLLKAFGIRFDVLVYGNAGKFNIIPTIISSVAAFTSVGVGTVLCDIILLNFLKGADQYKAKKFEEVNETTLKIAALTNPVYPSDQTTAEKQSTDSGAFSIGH
- protocol: Evaluation of human P2X3 receptor inhibitory activity (Fluo-3 calcium fluorescence, FDSS 3000, ATP stimulation);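 further: stimulus was 50 nM ATP with fluorescence followed for 3 min, and the response per well was peak post-ATP fluorescence divided by the reading at measurement start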
- Format: cell-based
- condition set: C6BU-1 cells stably expressing human P2X3 receptor
In plain terms, low IC50, meaning strictly below 20 nM, gives True, and everything else gives False.

Examples with answers:
* CCOC(=O)CCn1c(=O)[nH]/c(=N\c2ccc(OC3CCC3)cc2)n(Cc2ccc(Cl)cc2)c1=O | True
* CCn1c(=O)[nH]/c(=N\c2ccc(Oc3cncc(C(=O)O)c3)cc2)n(CC2CCC3(CC2)CC3)c1=O | True
* CCn1c(=O)[nH]/c(=N\c2ccc(Oc3ccccc3C(=O)OC)cc2)n(Cc2ccc(Cl)cc2)c1=O | False
* Cc1cc(/N=c2\[nH]c(=O)n(CC3(C(=O)NCCO)CC3)c(=O)n2Cc2ccc(Cl)cc2)ccc1OC(C)C | False
* COC(=O)CCCn1c(=O)[nH]/c(=N\c2ccc(Oc3ccnc(C)c3)cc2)n(Cc2ccc(Cl)cc2)c1=O | True
* CCOC(=O)CC(C)(C)n1c(=O)[nH]/c(=N\c2ccc(OC(C)C)c(F)c2)n(Cc2ccc(Cl)cc2)c1=O | False

Now take the following compound into account.
Task: Lab note: confirm whether the reported IC50 for this compound is below 20 nM, equality not counting. compound: `Cc1cc(/N=c2\[nH]c(=O)n(Cc3cccnc3OCCO)c(=O)n2Cc2ccc(Cl)cc2)ccc1OC(C)C`
Result: True
